Test System: L-lactate dehydrogenase (Plasmodium falciparum (isolate CDC / Honduras))
Test Description: PfLDH activity inhibition – cell lysate, 3D7 strain, counter-screen for P. falciparum growth inhibition project (AID 2304);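 further: 0% = vehicle and 100% = reference inhibitor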
Measurement Setup: P. falciparum 3D7 crude extract, LDH APAD/NBT absorbance; at 2 µM; stronger effect = higher value
Outcome Measure: inhibition (%)
Form entry: value (%) — number only.

Cc1cc(Nc2ccncc2)n2nc(C)c(-c3ccccc3Cl)c2n1 | 4

Determine from records and report inhibition for Cc1cc(OCCCN2CCC(NS(=O)(=O)c3cc(Br)c(Cl)s3)CC2)c2ccccc2n1 3

Determine from records and report inhibition for COc1ccc(OC)c2c1CCN(C)C2Cc1cccc2ccccc12 (centres undefined) 7

Determine from records and report inhibition for CC1CCN(CC[C@H]2CCCN2S(=O)(=O)c2cccc(NC(=O)c3ccc(-c4ccc(Cl)cc4)o3)c2)CC1 3

Determine from records and report inhibition for CC(C)CCNC(=O)C1Cc2c([nH]c3ccc(Br)cc23)C2(CCN(Cc3ccccc3)CC2)N1 (centres undefined) -3

Determine from records and report inhibition for O=C(Nc1ccccc1)c1ccc(N2CCC(COc3cccc(C(F)(F)F)c3)CC2)nc1 -3

Determine from records and report inhibition for CCC(=O)c1cc(C(=O)NCCc2cccc(OC)c2)ccc1OC -2

Determine from records and report inhibition for CC[C@H](C)CNC(=O)c1cncc(-c2cccc(CNC3Cc4ccccc4C3)c2)c1 0

Determine from records and report inhibition for c1ccc(OCCCCN2CCCCC2)cc1 -11

Determine from records and report inhibition for COc1ccc2c(NN=Cc3ccccc3[N+](=O)[O-])cc(C)nc2c1 -4

Determine from records and report inhibition for Cc1cc(C2CCN(CCCCNC(=O)c3ccc(NC(=O)c4ccc(Cl)cc4)cc3)CC2)c(C)cc1OCc1ccncc1 6

Determine from records and report inhibition for CN=C(N)c1ccc(NC(=O)Nc2ccc(C(N)=NC)cc2)cc1 -2

Determine from records and report inhibition for COc1ccc(CN2CCC(CNCCc3ccccc3Oc3ccccc3)CC2)cc1 0

Determine from records and report inhibition for O=C(N[C@H]1CCN(CCc2ccc(O[C@H]3CCNC3)cc2)C1)c1ccc(Cl)c(Cl)c1 -3

* * *

Test Description: antimalarial activity against Dd2 strain (AID 2302);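 further: 0% = DMSO untreated growth and 100% = chloroquine plus artemisinin killed control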
Measurement Setup: P. falciparum Dd2 in RBCs, LDH growth readout, 72 h; at 2 µM; stronger effect = higher value
Outcome Measure: growth inhibition (%)
Form entry: value (%) — number only.

# annotated cases, reported growth inhibition shown
COc1ccc(CN2CCC(CNCc3cccc(-c4ccccc4)c3)CC2)cc1 | 92
COc1cc2c(cc1NS(=O)(=O)c1ccc(OCc3ccc(Br)cc3)cc1)CCN(C1CCC1)CC2 | 30
COc1ccc(-c2ccc(CNC3Cc4ccccc4C3)cc2)cc1S(=O)(=O)NCCN1CCCC1 | 99
Cn1cc(CN2CCC(OC(c3ccccc3)c3ccc(Cl)cc3)CC2)cn1 (centres undefined) | 61
NC1=NC2(CCCCC2)N(OCCCCCCCCNc2nc(N)nc(N)n2)C(N)=N1 | 99
N#Cc1ccc(-c2ccc(C(=O)NCCCCN3CCC(c4ccc5c(c4OCc4ccncc4)CCCC5)CC3)cc2)cc1 | 57
CCCNCc1ccc(-c2ccc(CN(CCOC)C(=O)c3ccc([N+](=O)[O-])c(C)c3)cc2)nc1 | 23
O=[N+]([O-])c1cccc(NC(=S)N2CCCN(Cc3ccc(F)cc3F)CC2)c1 | 98

Determine from records and report growth inhibition for O=C(NCc1cccs1)[C@H](Cc1ccccc1)Nc1ccnc(NCCc2ccccc2)n1 59
